- System: HT1080
- assay.summary: relative viability vs DMSO control (72 h) (fraction); higher = more viable cells
- assay.setup: 0.00152 µM
parameter: relative viability
// no unit string in output, number only

Exercise: Given the compound C#Cc1cccc(Nc2ncnc3cc(OCCOC)c(OCCOC)cc23)c1 [Erlotinib] , what is its reported relative viability?
Key: 1.09

Exercise: Given the compound NC(=O)c1cnc2[nH]ccc2c1N[C@@H]1[C@@H]2CC3C[C@H]1C[C@@](O)(C3)C2 [Peficitinib] , what is its reported relative viability?
Key: 1.06

Exercise: Given the compound C=CC(=O)Nc1cccc(Nc2nc(Nc3ccc(N4CCN(C(C)=O)CC4)cc3OC)ncc2C(F)(F)F)c1 [Rociletinib] , what is its reported relative viability?
Key: 1.05

Exercise: Given the compound CO[C@H]1C[C@@H]2CC[C@@H](C)[C@@](O)(O2)C(=O)C(=O)N2CCCC[C@H]2C(=O)O[C@H]([C@H](C)C[C@@H]2CC[C@@H](O)[C@H](OC)C2)CC(=O)[C@H](C)/C=C(\C)[C@@H](O)[C@@H](OC)C(=O)[C@H](C)C[C@H](C)/C=C/C=C/C=C/1C [Rapamycin] , what is its reported relative viability?
Key: 1.02

Exercise: Given the compound CCN(CCCOc1ccc2c(Nc3cc(CC(=O)Nc4cccc(F)c4)[nH]n3)ncnc2c1)CCOP(=O)(O)O [Barasertib] , what is its reported relative viability?
Key: 1.04

Exercise: Given the compound Cc1ccc(NC(=O)c2ccc(CN3CCN(C)CC3)cc2)cc1Nc1nccc(-c2cccnc2)n1 [Imatinib] , what is its reported relative viability?
Key: 0.989

Exercise: Given the compound COc1cc2nccc(Oc3ccc(NC(=O)NC4CC4)c(Cl)c3)c2cc1C(N)=O [Lenvatinib] , what is its reported relative viability?
Key: 1.08
